- Test system: skin roughness
- Run description: Score of skin roughness, visual ranking after two-week coating on cheeks
- Assay type: in vivo, women
- Applied conditions: Invention product 4: emulsified cosmetic, compound 1.0 wt. %, polyoxyethylene (20) sorbitan stearate 1.0 and sorbitan monostearate 1.0 wt. %; average; 0 = none, 4 = severe
Readout label: Score of skin roughness
Answers are plain numbers.

1. CCCCCCCCCCOCC(O)CN(CCOP(=O)(O)OCCNCCc1ccccc1)C(=O)CCCCCCCCC (centres unmarked) [Compound Ie10]; 1.8

State the recorded Score of skin roughness for every item in the following list.
1. CCCCCCCCCCCCCCCCCC(=O)N(CCOP(=O)([O-])OCC[N+](CC)(CC)CC)CC(O)COCCCCCCCCCCCCCC (centres unmarked) [Compound Ie9]
2. CCCCCCCCCCCCCCCCCCOCC(O)CN(CCO)CC(O)COCCCCCCCCCCCCCCCCCC (centres unmarked) [Compound II4]
3. CCCCCCCCCCCCCCCCCC(=O)N(CC(=O)O)CC(O)CCCCCCCCCCCCCCCC (centres unmarked) [Compound Ic3]
4. CCCCCCCCCCCCCCCCOCC(O)CN(CCOP(=O)(O)OCCNCc1ccccc1)C(=O)CCCCCCCCCCCCCCC (centres unmarked) [Compound Ie8]
5. CCCCCCCCCCCCCCCCCC(=O)N(CC(=O)O)CC(O)COCCCCCCCCCCCCCC (centres unmarked) [Compound Ic2]
6. CCCCCCCCCCCCCCCCOCC(O)CN(C(=O)CCCCCCCCCCCCCCC)C(CCC(=O)O)C(=O)O (centres unmarked) [Compound Ic11]
7. CCCCCCCCCCCCCCCCOCC(CN(CCO)C(=O)CCCCCCCCCCCCCCC)OP(=O)([O-])OCC[N+](C)(C)C (centres unmarked) [Compound Ie13]

Reply:
1. 1.0
2. 0.7
3. 1.6
4. 1.3
5. 1.1
6. 1.3
7. 1.5

State the recorded Score of skin roughness for every item in the following list.
1. CCCCCCCCCCCCCCCCCC(=O)N(CCO)CC(O)CCCCCCCCCC (centres unmarked) [Compound Id4]
2. CCCCCCCC/C=C\CCCCCCCCOCC(O)CN(CCOP(=O)([O-])OCC[N+](C)(C)C)C(=O)CCCCCCCCCCCCCCCCC (centres unmarked) [Compound Ie12]
3. CCCCCCCCCCCCCCCCOCC(O)CN(CCOCCO)C(=O)CCCCCCCCCCCCCCC (centres unmarked) [Compound Ib1]

Reply:
1. 0.8
2. 1.5
3. 0.7

---

- System: horny layer
- Run description: Skin conductance (water content of horny layer) after two-week coating on cheeks
- Type: in vivo, women
- Design: key: conductance meter reading; ≤5 = severe roughness, ≥20 = no roughness
- Applied conditions: Invention Product 1: vaseline and compound 3:1 by weight; two weeks; 20° C., 40% humidity; 5 and smaller = severe roughness, 20 or greater = no substantial roughness
Readout label: Skin conductance
Answers are plain numbers.

State the recorded Skin conductance for every item in the following list.
1. CCCCCCCCCCCCCCCCCC(=O)N(CCOP(=O)([O-])OCC[N+](CC)(CC)CC)CC(O)COCCCCCCCCCCCCCC (centres unmarked) [Compound Ie9]
2. CCCCCCCCCCCCCCCCOCC(O)CN(C(=O)CCCCCCCCCCCCCCC)C(Cc1ccccc1)C(=O)O (centres unmarked) [Compound Ic6]
3. CCCCCCCCCCC(O)CN(CCO)C(=O)CCCCCCCCC (centres unmarked) [Compound Id3]

Reply:
1: 18; 2: 12; 3: 13

State the recorded Skin conductance for every item in the following list.
1. CCCCCCCCCCCCCCCCCCOCC(O)CN(CCCCCCO)C(=O)CCCCCCCCCCCCCCCCC (centres unmarked) [Compound Ia9]
2. CCCCCCCCCCCCCCCCCCOCC(O)CN(CCO)CC(O)COCCCCCCCCCC (centres unmarked) [Compound II3]
3. CCCCCCCCCCCCCCCCCCOCC(O)CN(C(=O)CCCCCCCCCCCCCCCCC)C(C)CO (centres unmarked) [Compound Ia16]
4. CCCCCCCCCCCCCCCCC(O)CN(CCO)C(=O)CCCCCCCCC (centres unmarked) [Compound Id2]
5. CCCCCCCCCCCCCCCCOCC(O)CN(C(=O)CCCCCCCCCCCCCCC)C(CCC(=O)O)C(=O)O (centres unmarked) [Compound Ic11]
6. CCCCCCCCCCCCCCCCCC(=O)N(CCOCCO)CC(O)COCCCCCCCCCC (centres unmarked) [Compound Ib4]
7. CCCCCCCCCCCCCCCCOCC(O)CN(C(=O)CCCCCCCCCCCCCCC)C(Cc1c[nH]cn1)C(=O)O (centres unmarked) [Compound Ic12]
8. CCCCCCCCCCCCCCCCOCC(O)CN(CC(=O)O)CC(O)COCCCCCCCCCCCCCCCC (centres unmarked) [Compound II9]

Reply:
1: 20; 2: 11; 3: 15; 4: 18; 5: 13; 6: 17; 7: 11; 8: 17

State the recorded Skin conductance for every item in the following list.
1. CCCCCCCCCCCCCCCCCCOCC(O)CN(CC(C)O)C(=O)CCCCCCCCCCCCCCCCC (centres unmarked) [Compound Ia13]
2. CCCCCCCCCCCCCCCCOCC(O)CN(CCOP(=O)(O)OCCNC)C(=O)CCCCCCCCCCCCCCC (centres unmarked) [Compound Ie6]
3. CCCCCCCCCCCCCCOCC(O)CN(C(=O)CCCCCCCCC)C(CO)(CO)CO (centres unmarked) [Compound Ia17]

Reply:
1. 13
2. 16
3. 20
